- Target system: T1, human programmed cell death protein 1 (hPD-1) C93S (aa 24-167) (Homo sapiens, UniProt Q15116, C93S)
- T1 construct: made as a fusion with a TEV site and human Fc; the Fc was cut off with TEV protease; source: Expi293F, purified (Protein A, TEV cleavage of Fc, SEC; monomer fractions); not shown: Fc (human), C-terminal, cleaved
- T1 sequence (Q15116 24-167 C93S): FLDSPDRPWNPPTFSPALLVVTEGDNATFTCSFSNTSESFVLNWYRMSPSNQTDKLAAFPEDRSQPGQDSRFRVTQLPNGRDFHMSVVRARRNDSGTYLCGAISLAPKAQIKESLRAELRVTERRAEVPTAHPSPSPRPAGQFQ
- Assay comment: SPR; Carterra LSA; Fab from the ammonium sulfate precipitate of the culture supernatant immobilised on a NiHC200M chip; hPD-1 (1-1024 nM) or mPD-1-Fc (4-1024 nM) as analyte, fourfold dilution series, no regeneration; HBS-EP pH 7.4, 25 °C; medians over the spots of a construct, KD = koff/kon
- Stated conditions: one partner purified
I'd appreciate it if you could supply koff values for the items below.

Task item: Would you mind telling me what koff value was observed for toripalimab Fab L.L101E (Fab, V domains shown, as the heavy chain of Sm3; light chain of Sm3 with this change; numbers count from the chain's first residue; source: Brevibacillus, culture supernatant (ammonium sulfate precipitate); not shown: 6xHis, C-terminal, kept; 6xHN, C-terminal, kept) VH: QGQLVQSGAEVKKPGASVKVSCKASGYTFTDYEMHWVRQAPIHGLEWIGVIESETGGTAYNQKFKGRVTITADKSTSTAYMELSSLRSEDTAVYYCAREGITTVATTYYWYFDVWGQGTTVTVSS VL: DVVMTQSPLSLPVTLGQPASISCRSSQSIVHSNGNTYLEWYLQKPGQSPQLLIYKVSNRFSGVPDRFSGSGSGTDFTLKISRVEAEDVGVYYCFQGSHVPETFGQGTKLEIK ?
Reply: 0.000124 s⁻¹

Task item: What value of koff has been recorded for this entry: toripalimab Fab L.S28A (Fab, V domains shown, as the heavy chain of Sm3; light chain of Sm3 with this change; numbers count from the chain's first residue; source: Brevibacillus, culture supernatant (ammonium sulfate precipitate); not shown: 6xHis, C-terminal, kept; 6xHN, C-terminal, kept) VH: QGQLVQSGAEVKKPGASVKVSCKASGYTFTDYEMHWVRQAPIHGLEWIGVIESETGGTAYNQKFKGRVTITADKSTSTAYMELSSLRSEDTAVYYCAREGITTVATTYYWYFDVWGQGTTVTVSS VL: DVVMTQSPLSLPVTLGQPASISCRSSQAIVHSNGNTYLEWYLQKPGQSPQLLIYKVSNRFSGVPDRFSGSGSGTDFTLKISRVEAEDVGVYYCFQGSHVPLTFGQGTKLEIK
Reply: < 1e-05 s⁻¹

Task item: Need koff of toripalimab Fab H.T103Y (Fab, V domains shown, heavy chain of Sm3 with this change; numbers count from the chain's first residue; as the light chain of Sm3; source: Brevibacillus, culture supernatant (ammonium sulfate precipitate); not shown: 6xHis, C-terminal, kept; 6xHN, C-terminal, kept) VH: QGQLVQSGAEVKKPGASVKVSCKASGYTFTDYEMHWVRQAPIHGLEWIGVIESETGGTAYNQKFKGRVTITADKSTSTAYMELSSLRSEDTAVYYCAREGITYVATTYYWYFDVWGQGTTVTVSS VL: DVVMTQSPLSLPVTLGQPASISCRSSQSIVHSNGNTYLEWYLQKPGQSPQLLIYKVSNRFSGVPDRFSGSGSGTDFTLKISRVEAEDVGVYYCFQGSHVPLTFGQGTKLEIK , thanks.
Reply: < 1e-05 s⁻¹

Provenance of the data: paper PMC10663500
